Where these numbers come from: PubChem BioAssay AID1159580

protocol-summary: chemical genetic growth profiling, strain panel (AID 1159580);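 further: tested at 20 µM; growth read once vehicle control cultures reached saturation at 30 °C; 1 = growth at the plate median or of vehicle wells; lower values mean less growth of the strain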
experimental-setup: S. cerevisiae deletion strains, growth OD, locus YCL011C, strain gbp2, active compounds read low
The campaign covered roughly 5,500 compounds. About 2,000 (36%) were called active. Not shown: some 18% with an inconclusive outcome. The list shows a part of the results.
parameter-measured: normalized growth
When you answer, write just the number.

[
  {
    "compound": "N=C(N)N",
    "normalized growth": 1.01
  },
  {
    "compound": "COC(=O)c1c(OC)cc2c(c1C)Oc1c(Cl)c(O)c(Cl)c(C)c1C(=O)O2",
    "normalized growth": 0.986
  },
  {
    "compound": "COC(=O)c1c(C)c2c(c(C)c1O)OC(=O)c1c(C)c(Cl)c(O)c(Cl)c1O2",
    "normalized growth": 0.96
  },
  {
    "compound": "CC12CCC(=O)C=C1CCC1C2[C@@H](O)CC2(C)C1CC[C@]2(O)C(=O)COP(=O)(O)O (stereo partly specified)",
    "normalized growth": 0.991
  },
  {
    "compound": "CN[C@@H]1[C@H](O)[C@H](NC)[C@H]2O[C@@]3(O)C(=O)C[C@@H](C)O[C@H]3O[C@@H]2[C@H]1O",
    "normalized growth": 0.991
  },
  {
    "compound": "CCCc1cc(=O)[nH]c(=S)[nH]1",
    "normalized growth": 1.01
  },
  {
    "compound": "Cc1scc2c1N(C(=O)CN1CCN(C)CC1)c1ccccc1NC2=O",
    "normalized growth": 0.954
  },
  {
    "compound": "CC(N=C(NC#N)Nc1ccncc1)C(C)(C)C (stereo unspecified)",
    "normalized growth": 0.989
  },
  {
    "compound": "COC(=O)c1c(OC)cc2c(c1C)Oc1c(Cl)c(OC(C)=O)c(Cl)c(C)c1C(=O)O2",
    "normalized growth": 1.02
  },
  {
    "compound": "Cc1cc(=O)oc2cc(O)cc(O)c12",
    "normalized growth": 0.95
  }
]

Turning to the following compound.
Query: Which normalized growth reading was recorded for the compound CC(=O)c1cc(CC=C(C)C)c(O)c(CC=C(C)C)c1 ?
Reply: 1.01
